Values were extracted from the supplement of paper PMC9112550.

Test system: Escherichia coli TOP10
Test: shrunken log2 fold change of peptide-encoding DNA abundance (4.5 h post-induction vs induction); higher = less antimicrobial activity (less host growth inhibition)
Conditions: time post-induction: 4.5 h; library: site-saturation at positions 5, 18, 19, 20
Consider the following sequences and their measured shrunken log2 fold change readings.

Look over these answered cases.
Ask: Give the measured shrunken log2 fold change for RRIRYRPPRLPRPRPRPQFMPRP
Result: -0.074

Ask: Give the measured shrunken log2 fold change for RRIRHRPPRLPRPRPRPQFLPRP
Result: -0.653

Ask: Give the measured shrunken log2 fold change for RRIRVRPPRLPRPRPRPPLGPRP
Result: 0.554

Ask: Give the measured shrunken log2 fold change for RRIRFRPPRLPRPRPRPKIGPRP
Result: -0.0769

Ask: Give the measured shrunken log2 fold change for RRIRARPPRLPRPRPRPTYCPRP
Result: -0.119

More entries:
Ask: Give the measured shrunken log2 fold change for RRIRIRPPRLPRPRPRPRMPPRP
Result: -0.0534

Ask: Give the measured shrunken log2 fold change for RRIRCRPPRLPRPRPRPRQQPRP
Result: -0.245

Ask: Give the measured shrunken log2 fold change for RRIRERPPRLPRPRPRPPQGPRP
Result: 0.158

Ask: Give the measured shrunken log2 fold change for RRIRPRPPRLPRPRPRPPQNPRP
Result: 0.361

Ask: Give the measured shrunken log2 fold change for RRIRHRPPRLPRPRPRPAQEPRP
Result: 0.381

Ask: Give the measured shrunken log2 fold change for RRIRDRPPRLPRPRPRPARLPRP
Result: 0.382

Ask: Give the measured shrunken log2 fold change for RRIRFRPPRLPRPRPRPEAKPRP
Result: 0.0369

Ask: Give the measured shrunken log2 fold change for RRIRKRPPRLPRPRPRPTHRPRP
Result: 1.15

Ask: Give the measured shrunken log2 fold change for RRIRCRPPRLPRPRPRPHILPRP
Result: -0.476

----------
System: Escherichia coli TOP10
Test: shrunken log2 fold change of peptide-encoding DNA abundance (4.5 h post-induction vs induction); higher = less antimicrobial activity (less host growth inhibition)
Details: time post-induction: 4.5 h; library: site-saturation at positions 5, 18, 19, 20
Outcome: y for shrunken log2 fold change of at least -0.03; n for anything lower.

Example results:
Ask: Reported shrunken log2 fold change reaches at least -0.03 for RRIRIRPPRLPRPRPRPAHVPRP ?
Result: n

Ask: Reported shrunken log2 fold change reaches at least -0.03 for RRIRERPPRLPRPRPRPWWMPRP ?
Result: n

Ask: Reported shrunken log2 fold change reaches at least -0.03 for RRIRARPPRLPRPRPRPKVVPRP ?
Result: n

Ask: Reported shrunken log2 fold change reaches at least -0.03 for RRIRGRPPRLPRPRPRPGGMPRP ?
Result: y

Ask: Reported shrunken log2 fold change reaches at least -0.03 for RRIRDRPPRLPRPRPRPGHHPRP ?
Result: y

More entries:
Ask: Reported shrunken log2 fold change reaches at least -0.03 for RRIRQRPPRLPRPRPRPVPRPRP ?
Result: y

Ask: Reported shrunken log2 fold change reaches at least -0.03 for RRIRFRPPRLPRPRPRPFSAPRP ?
Result: n

----------
Tested on: Escherichia coli TOP10;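 also: peptides expressed intracellularly from a pBAD plasmid library in pooled LB shake-flask culture, induced with 0.3% L-arabinose, DNA abundance read by NGS, three biological replicates, DESeq2 with apeglm shrinkage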
Assay: shrunken log2 fold change of peptide-encoding DNA abundance (4.5 h post-induction vs induction); higher = less antimicrobial activity (less host growth inhibition)
Details: time post-induction: 4.5 h; library: site-saturation at positions 5, 18, 19, 20
Outcome: T for shrunken log2 fold change of at least 1; F for anything lower.

Ask: Reported shrunken log2 fold change reaches at least 1 for RRIRGRPPRLPRPRPRPVRMPRP ?
Result: F

More entries:
Ask: Reported shrunken log2 fold change reaches at least 1 for RRIRPRPPRLPRPRPRPAWFPRP ?
Result: F
